# protocol.notes: physchem
# experimental.setup: 25 °C, organic solvent or mixture, thermodynamic from solid
quantity.measured: solubility at 24 h (µg/mL)
Field format: number, assumed µg/mL, no unit text.

Query COc1cc(C)c(/C=C/C(C)=C/C=C/C(C)=C/C(=O)O)c(C)c1C [acitretin] yields solubility at 24 h of 2500

Where do these numbers come from? They come from patent US10342774B2.
